The values you see were collected from patent US9844542B2.

- System Under Test: rat mGluR5 (Rattus norvegicus, UniProt P31424)
- Sequence (P31424 21-1171 isoform P31424-2 limits assumed): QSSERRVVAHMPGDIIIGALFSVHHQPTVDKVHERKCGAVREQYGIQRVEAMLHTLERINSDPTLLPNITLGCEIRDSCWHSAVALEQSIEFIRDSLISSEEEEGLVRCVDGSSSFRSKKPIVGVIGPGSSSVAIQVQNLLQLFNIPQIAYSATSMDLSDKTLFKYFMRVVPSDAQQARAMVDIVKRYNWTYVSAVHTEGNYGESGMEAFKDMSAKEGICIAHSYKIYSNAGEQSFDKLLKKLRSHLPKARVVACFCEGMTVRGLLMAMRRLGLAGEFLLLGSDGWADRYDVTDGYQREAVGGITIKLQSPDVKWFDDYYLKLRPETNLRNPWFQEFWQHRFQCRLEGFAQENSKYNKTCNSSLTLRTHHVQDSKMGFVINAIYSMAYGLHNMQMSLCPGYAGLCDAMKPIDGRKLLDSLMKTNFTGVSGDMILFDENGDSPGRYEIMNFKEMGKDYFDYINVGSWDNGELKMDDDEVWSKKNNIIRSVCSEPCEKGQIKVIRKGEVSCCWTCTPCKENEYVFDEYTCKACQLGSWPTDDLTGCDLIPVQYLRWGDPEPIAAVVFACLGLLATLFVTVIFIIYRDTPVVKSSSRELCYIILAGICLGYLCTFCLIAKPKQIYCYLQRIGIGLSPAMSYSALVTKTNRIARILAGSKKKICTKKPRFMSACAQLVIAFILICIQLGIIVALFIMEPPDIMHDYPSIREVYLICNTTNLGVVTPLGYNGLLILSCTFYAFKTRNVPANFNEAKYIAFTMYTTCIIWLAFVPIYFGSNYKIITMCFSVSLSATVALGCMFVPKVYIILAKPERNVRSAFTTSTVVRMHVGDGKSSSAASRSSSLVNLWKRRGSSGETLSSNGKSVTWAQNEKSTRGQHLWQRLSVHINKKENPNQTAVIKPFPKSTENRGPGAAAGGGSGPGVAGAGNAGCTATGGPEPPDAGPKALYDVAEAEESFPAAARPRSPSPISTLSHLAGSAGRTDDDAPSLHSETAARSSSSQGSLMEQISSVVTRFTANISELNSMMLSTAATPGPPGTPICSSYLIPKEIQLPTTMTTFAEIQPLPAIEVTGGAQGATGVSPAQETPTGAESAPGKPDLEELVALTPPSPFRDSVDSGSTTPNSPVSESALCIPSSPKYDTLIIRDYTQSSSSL
- Experiment: mGluR5 calcium mobilization assay (FDSS, Fluo-4) in HEK 293A cells stably expressing rat mGluR5
- Experimental Parameters: HEK cells transfected with rat mGluR5; antagonism of glutamate EC80 response; ± = standard error of at least three experiments
Property Name: pIC50
Numbers only, as −log10 of the molar value.

# annotated cases, reported pIC50 shown
Smiles Text: CCc1cccc(NC(=O)c2cc(Oc3cncc(F)c3)cn3nc(C)nc23)n1
pIC50: 6.21
//
Smiles Text: [2H]c1nc(NC(=O)c2cc(Oc3cncc(C)c3)cn3ncnc23)c([2H])c([2H])c1[2H]
pIC50: 7.26
//
Smiles Text: Cc1nc2c(C(=O)Nc3ccc(F)cn3)cc(Oc3cncc(F)c3)cn2n1
pIC50: 6.51
//
Smiles Text: COc1cncc(Oc2cc(C(=O)Nc3nc(C)cs3)c3ncnn3c2)c1
pIC50: 6.86

Hello, I would appreciate it if you could give pIC50 for each entry below.
1. O=C(Nc1cccc(F)n1)c1cc(Oc2cccnc2)cn2ncnc12
2. CCc1cccc(NC(=O)c2cc(Oc3cccnc3)cn3ncnc23)n1
3. COc1ccc(NC(=O)c2cc(Oc3cncc(OC)c3)cn3ncnc23)nc1
4. O=C(Nc1ccc(F)cn1)c1cc(Oc2cncc(Cl)c2)cn2ncnc12
5. CCc1cccc(NC(=O)c2cc(Oc3cncc(F)c3)cn3cnnc23)n1

[7.49, 6.94, 6.48, 7.41, 6.77]

Hello, I would appreciate it if you could give pIC50 for each entry below.
1. O=C(Nc1ccccn1)c1cc(Oc2cncc(F)c2F)cn2ncnc12
2. O=C(Nc1cc(F)ccn1)c1cc(Oc2cncc(F)c2)cn2cnnc12

1. 7.44
2. 5.93

Hello, I would appreciate it if you could give pIC50 for each entry below.
1. Cc1cccc(NC(=O)c2cc(Oc3cncc(Cl)c3)cn3ncnc23)n1
2. COc1cccc(NC(=O)c2cc(Oc3cncc(F)c3)cn3ccnc23)n1
3. Cc1cccc(NC(=O)c2cc(Oc3cncnc3)cn3ncnc23)n1
4. Cc1cccc(NC(=O)c2cc(Oc3cncc(Cl)c3)cn3cnnc23)n1
5. Cc1ncc(Oc2cc(C(=O)Nc3ccccn3)c3nncn3c2)cn1
6. Cc1cccc(NC(=O)c2cc(Oc3cncnc3)cn3cnnc23)n1
7. Cc1cncc(Oc2cc(C(=O)Nc3cccc(F)n3)c3ncnn3c2)c1

6.89
7.03
6.51
6.16
5.03
6.17
7.05

Hello, I would appreciate it if you could give pIC50 for each entry below.
1. O=C(Nc1ccccn1)c1cc(Oc2cccnc2)cn2ncnc12
2. Cc1nnc2c(C(=O)Nc3ccc(F)cn3)cc(Oc3cncc(F)c3)cn12
3. Cc1csc(NC(=O)c2cc(Oc3cncc(C#N)c3)cn3ncnc23)n1

1: 7.55; 2: 6.44; 3: 6.71

###

- System Under Test: rat mGluR5 (Rattus norvegicus, UniProt P31424)
- Experiment: mGluR5 calcium mobilization assay (FDSS, Fluo-4) in HEK 293A cells stably expressing rat mGluR5
- Experimental Parameters: HEK cells transfected with rat mGluR5; antagonism of glutamate EC80 response; ± = standard error of at least three experiments
Entries get a class label from measured IC50. See ranges: low = under 60 nM, medium = from 60 nM up to 200 nM, high = 200 nM and over

Worked examples, 3 compounds total:
Smiles Text: COc1cncc(Oc2cc(C(=O)Nc3cccc(F)n3)c3nncn3c2)c1
Label: high

Smiles Text: O=C(Nc1ccc(F)cn1)c1cc(Oc2cncc(F)c2F)cn2ncnc12
Label: low

Smiles Text: COc1cncc(Oc2cc(C(=O)Nc3ccc(C)cn3)c3ncnn3c2)c1
Label: high

Next, consider the following compound.
Quick check: band for Cc1nnc2c(C(=O)Nc3cccc(F)n3)cc(Oc3cncc(F)c3)cn12
high
